Overview of recorded fluorescence slope for various compounds
- assay system: Muscarinic acetylcholine receptor M4 (Homo sapiens)
- assay notes: compounds altering M4/GIRK thallium flux, either direction, primary screen, M4 allosteric agonist project, cell-based, HEK293 M4/GIRK, BTC-AM (AID 625);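 also: thallium influx through GIRK channels coupled to M4 in HEK293 cells with BTC-AM dye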
- experimental conditions: at 10 µM, actives lie on both sides
The source made the active and inactive calls.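 The calls were made as follows: active = fluorescence slope after compound addition differing from the mean of all tested samples at 99.7% confidence, mostly higher but some lower; inactive = the rest.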

Query string: Annotate the compound COc1ccc(C2C=C(c3ccc(C)cc3)Nc3ncnn32)cc1 (centres undefined) with its measured fluorescence slope.
Result string: 0.00462 (inactive)

Query string: For "c1ccc2c(c1)[nH]c1c(N3CCN(C4CCCCC4)CC3)ncnc12" , write its fluorescence slope.
Result string: 0.00557 (inactive)

Query string: Give me measured fluorescence slope, please, for this compound: "Cc1ccc(C(=O)/C=C/Nc2ccccn2)cc1"
Result string: 0.00424 (inactive)

----------
- assay notes: DUSP6 inhibitors restoring Erk phosphorylation by chemical complementation, primary imaging in DUSP6-transfected HeLa (AID 609)
- experimental conditions: HeLa MKP-3 transfected, phospho-Erk imaging KS statistic; measured here: nuclear pErk red intensity z-score; at 10 µM; stronger effect = higher value; cells stimulated with TPA for 15 min
The class of a record is decided solely by its measured z-score; consult bin 1: < -0.5; bin 2: ≥ -0.5 and < 0.6; bin 3: ≥ 0.6

See these solved cases before continuing.
>>> df
                                   molecule  assigned_class
0       Clc1ccc(-n2ncc3c(N4CCCC4)ncnc32)cc1           bin 3
1  Cc1ccc(-n2ncc3c(NCc4ccc5c(c4)OCO5)ncnc32)c(C)c1           bin 1
2  COC(=O)c1ccc(C2/C(=C(/O)c3ccc(OC)cc3)C(=O)C(=O)N2Cc2ccco2)cc1 (configuration not stated)           bin 1
3                  O=c1c2ccccc2ncn1Cc1ccco1           bin 3
4             COCCNc1oc(-c2ccc(F)cc2)nc1C#N           bin 3

Query string: Exercise: read the entry COc1cccc(C2C(C(=O)c3sc(C)nc3C)=C(O)C(=O)N2CCN2CCOCC2)c1OC (configuration not stated) and state which class it falls under.
Result string: bin 3

Query string: Each molecule maps to one class by z-score. Which class for "O=C(COc1ccc(-c2nnc(N3CCCCC3)c3ccccc23)cc1)N1CCCCC1" ?
Result string: bin 3

Query string: Sort "Cc1ccc(N2C(=O)c3sc4nnc(C)c(=O)n4c3C2=O)cc1" into one of the categories.
Result string: bin 1

Query string: Lab note: which band did CCCCCOC(=O)C(C)c1c(C)[nH]c(=S)[nH]c1=O (configuration not stated) land in?
Result string: bin 3

Query string: For this molecule, which bin applies? "CC(=O)N(Cc1ccccc1)c1ccc(C(=O)O)cc1"
Result string: bin 3

Query string: Input "O=C(O)c1ccnc(C(=O)O)c1" ; output its category
Result string: bin 3

----------
- assay notes: inhibitors of E-selectin induction by TNFa, primary screen, imaging, HUVEC, immunofluorescence, MLSMR starter and 10KST1 sets (AID 487);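 also: signal is fraction of cell area covered by stained E-selectin grains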
- experimental conditions: HUVEC TNFalpha-induced E-selectin immunofluorescence imaging, at 2 µM; stronger effect = higher value
Active and inactive are the calls of the source.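 How the source made its calls: active means visually confirmed hit in the image check and inhibition above 20%; inconclusive means visually confirmed hit but inhibition not above 20%; inactive means no visual hit in the image check.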
measured endpoint: inhibition

Some solved entries appear below for comparison.
In [3]: df
Out[3]:
                                   molecule         test_value
0  COc1ccc(C2CC(c3ccccc3)Nc3nc(N)nn32)cc1 (stereo unspecified)  -29.3% (inactive)
1  O=C(O)CC(NC(=O)c1ccccc1NC(=O)c1ccccc1)C(=O)O (stereo unspecified)   22.6% (inactive)
2         O=C(COc1ccc(F)cc1Br)N1CCc2ccccc21  -49.2% (inactive)
3  CCOC(=O)c1c(C)oc2c1c(C(c1ccncc1)N1CCOCC1)c(O)c1ccccc12 (stereo unspecified)  -21.1% (inactive)
4  CC1(C)Cc2c(sc3ncn4nc(-c5ccco5)nc4c23)CO1  -31.6% (inactive)

Query string: In one line, give reported inhibition of the entry c1ccc2c(c1)CCOC2CNCCCN1CCCCC1 (stereo unspecified) .
Result string: -141% (inactive)

Query string: Please give measured inhibition of the following entry: "CC(C)c1[nH]c(=O)c(C#N)c2c1CSC(C)(C)C2"
Result string: 4% (inactive)

Query string: Complete the entry with inhibition for "COC(=O)c1sc2nc(N3CCCCC3)c3c(c2c1N)CC(C)(C)N(C)C3"
Result string: -114% (inactive)

Query string: Fill in reported inhibition for this entry: "Cn1c(=O)cc(OCCCC(=O)Nc2ccc3c(c2)OCCO3)c2ccccc21"
Result string: -8.1% (inactive)

Query string: Give recorded inhibition. CC1(C)NC(=O)N(CC(O)COc2cc3ccccc3cc2C(=O)N2CCCCC2)C1=O (stereo unspecified)
Result string: 5.9% (inactive)

Query string: // fetch inhibition given entry O=C(NCCC1=CCCCC1)C1CC(=O)N(C2CCCCCC2)C1 (stereo unspecified)
Result string: -41.7% (inactive)
